System: P. falciparum 3D7 parasites
Experiment: Asexual erythrocytic-stage SYBR Green I proliferation assay, 1536-well
Type: cell-based, Plasmodium falciparum
Conditions: Plasmodium falciparum, 3D7, read-out: P. falciparum (blood) IC50, Table S1, validation set of 50 antimalarials
Counter-ions that a name gives are not always drawn.
experimental readout: IC50

- CCN(CC)CCCC(C)Nc1cc(OC)cc2cccnc12 (centres unmarked) [Pamaquine, reference compound]: > 10000 nM
- COc1ccc2nc3cc(Cl)ccc3c(Nc3cc(CN4CCCC4)c(O)c(CN4CCCC4)c3)c2n1 [Pyronaridine, reference compound]: 9.6 nM
- C[C@H]1[C@@H](O)O[C@@H]2O[C@@]3(C)CC[C@H]4[C@H](C)CC[C@@H]1[C@@]24OO3 [Artenimol, reference compound]: < 0.4 nM
- CCCCN(CCCC)CC(O)c1cc(Cl)cc2c1-c1ccc(Cl)cc1/C2=C/c1ccc(Cl)cc1 (centres unmarked) [Lumefantrine, reference compound]: 7.3 nM
- N=C(N)c1ccc(OCCCCCOc2ccc(C(=N)N)cc2)cc1 [Pentamidine, reference compound]: 0.5 nM
- CC(=O)N(O)CCCCCNC(=O)CCC(=O)N(O)CCCCCNC(=O)CCC(=O)N(O)CCCCCN [Deferoxamine, reference compound]: > 10000 nM
- COc1cc(Cc2cnc(N)nc2N)cc(OC)c1OC: 5640 nM
- COc1ncnc(NS(=O)(=O)c2ccc(N)cc2)c1OC [Sulfadoxine, reference compound]: > 62500 nM
- CCc1nc(N)nc(N)c1-c1ccc(Cl)cc1 [Pyrimethamine, reference compound]: 19.9 nM
- C=C[C@H]1C[N@@]2CC[C@H]1C[C@H]2[C@H](O)c1ccnc2ccc(OC)cc12 [Quinine sulfate dihydrate, reference compound]: 12.3 nM
- Nc1ccc(S(=O)(=O)Nc2ncccn2)cc1 [Sulfadiazine, reference compound]: > 62500 nM
- CN(C)c1ccc2nc3ccc(=[N+](C)C)cc-3sc2c1 [Methylene Blue, reference compound]: 7980 nM
- C[C@@H]1CC[C@H]2[C@@H](C)C(=O)O[C@@H]3O[C@@]4(C)CC[C@@H]1[C@]32OO4 [Artemisinin, reference compound]: 4.7 nM
- CN(C)[C@@H]1C(O)=C(C(N)=O)C(=O)[C@@]2(O)C(O)=C3C(=O)c4c(O)cccc4[C@@](C)(O)[C@H]3C[C@@H]12 [Tetracycline, reference compound]: > 10000 nM

* * *

System: HepG2-A16-CD81EGFP cells
Assay: cells
Conditions: Homo sapiens, HepG2, read-out: Tox max inhibition (%) @ 50 uM
Decision: inhibition at 50 µM compared against 90%; not below it gives 1 (yes), below it gives 0 (no).

* O=C(Nc1ccc(Cl)c(Cl)c1)Nc1ccc(Cl)c(Cl)c1 | 1 (yes)
* CCCOCc1cc(CN2CCN(c3cccc(Cl)c3)CC2)c(O)c2ncccc12 | 1 (yes)
* O=C(NC1CCN(Cc2ccccc2)CC1)c1cc(-c2cccnc2)nc2ccc(Cl)cc12 | 0 (no)
* CCN1CCN(c2c(C(=O)c3ccccc3)cnc3cc(OC)c(OC)cc23)CC1 | 0 (no)
* Cc1cc(N(C)C)nc(Nc2ccc(NC(=O)Nc3ccccc3)cc2)n1 | 1 (yes)
* Nc1ccc(-c2nc3cc(Cc4ccc5[nH]c(-c6ccc(N)cc6)nc5c4)ccc3[nH]2)cc1 | 1 (yes)
* COc1ccc(-c2c(C)nn3c(N)c(C#N)cnc23)cc1OC | 0 (no)
* COc1ccc2c(c1)C1(Nc3ccccc3-c3nc4ccccc4n31)C(=O)N2 (stereo not drawn) | 0 (no)

* * *

Target: QuantiLum Recombinant Luciferase (Photinus pyralis)
Sequence (P08659 whole entry): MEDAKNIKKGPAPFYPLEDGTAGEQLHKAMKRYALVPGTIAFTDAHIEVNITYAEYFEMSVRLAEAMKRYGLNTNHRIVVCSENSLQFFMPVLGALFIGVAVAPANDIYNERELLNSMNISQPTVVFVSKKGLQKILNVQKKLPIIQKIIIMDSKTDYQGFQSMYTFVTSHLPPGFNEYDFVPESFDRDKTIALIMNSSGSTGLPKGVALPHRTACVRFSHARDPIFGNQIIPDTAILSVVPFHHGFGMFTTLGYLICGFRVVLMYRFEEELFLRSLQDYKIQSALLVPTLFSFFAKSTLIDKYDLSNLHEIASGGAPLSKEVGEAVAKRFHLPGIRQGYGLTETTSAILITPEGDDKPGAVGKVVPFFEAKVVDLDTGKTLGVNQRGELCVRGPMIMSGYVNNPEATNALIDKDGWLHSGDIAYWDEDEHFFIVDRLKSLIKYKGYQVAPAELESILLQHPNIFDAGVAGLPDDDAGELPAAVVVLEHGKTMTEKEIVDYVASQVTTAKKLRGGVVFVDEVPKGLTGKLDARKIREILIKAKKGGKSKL
Experiment: Bioluminescence quantification of compound luciferase inhibition
Details: read-out: LucInhib max inhibition
Below, each entry is listed with its recorded Emax.
experimental readout: Emax (%)

• CC(C)(C)c1ccc(C(=O)Nc2c3c(nn2-c2cccc(Cl)c2)CSC3)cc1 = 23
• CCOc1ccc(CCNC(=O)c2cccs2)cc1OCC = 34
• COCCn1c(C)nc2ccccc2c1=O = 13
• N=c1c2ccccc2nnn1-c1cccc(C(F)(F)F)c1 = 26
• Oc1c2c(nc3ccccc13)CCCC2 = 18
• COc1cccc(C(=O)Nc2ccc(-c3nc4ccccc4[nH]3)cc2)c1 = -3
• CCCCOc1ccc(C(=O)Nc2cc(C)on2)cc1 = 34
• FC(F)(F)c1ccc(Nc2nnnc3ccccc23)cc1 = 25
• CCOc1cc2c(cc1OCC)C(c1cc(OC)c(O)cc1Cl)NCC2 (stereo not shown) = 24
• COc1ccc(C)c2sc(N(Cc3cccnc3)C(=O)c3ccc(C#N)cc3)nc12 = 7
• O=C(Nc1ccc(-c2nc3ccccc3[nH]2)cc1)c1ccc(Cl)c(Cl)c1 = 22
• C=CCc1c(C)nc2ccccc2c1O = 38
• N#Cc1nc(Cc2cccc3ccccc23)oc1N1CCN(C(c2ccccc2)c2ccccc2)CC1 = 23
• Cc1ccc(-c2cc3nc4c(c(O)n3n2)CCCC4)cc1 = 92
• CCN(CC)c1ccc(NC(=O)c2cccs2)cc1 = 80
• CCOc1ccc(Nc2ccnc3cc(Cl)ccc23)cc1 = 47
• COc1cc(CNCCc2ccc(Cl)cc2)cc(OC)c1O = 39
• Cc1ccc(N2C(=O)C3C(C2=O)C2(c4ccccc4)C(=O)C3(c3ccccc3)C(c3ccccc3)=C2c2ccccc2)cc1 (stereo not shown) = 23
• COc1cccc(NC(=O)[C@H](C(C)C)n2c(=O)[nH]c3ccccc3c2=O)c1 = 28
• O=C(NC1CCN(Cc2ccccc2)CC1)c1cc(-c2cccnc2)nc2ccc(Cl)cc12 = 23
• CCOc1ccc(C=Cc2nc(=O)c3ccccc3o2)cc1 = 85
• COc1ccc(C(C)=O)cc1N1C(=O)C2C(C1=O)C1(c3ccccc3)C(=O)C2(c2ccccc2)C(c2ccc(C)cc2)=C1c1ccc(C)cc1 (stereo not shown) = 35

* * *

Below, each entry is listed with its recorded inhibition at 50 µM.
Tested on: HepG2-A16-CD81EGFP cells
Assay: cells
Settings: Homo sapiens, HepG2, read-out: % inhibition
experimental readout: inhibition at 50 µM (%)

• CCCCCCc1cc2cc(-c3nc4ccccc4[nH]3)c(=Nc3ccccc3C)oc2cc1O = 85.4
• CCOC(=O)c1c(NC(=O)c2ccccc2)sc2c(O)c(CN(CC)CC)ccc12 = 26.5
• CCC(=O)Nc1nnc(Cc2ccc(OC)c(OC)c2)s1 = -25.5
• CCCN(CCC)CCCNC(=O)c1cc2c(-c3ccc(OC)c(OC)c3)nn(C)c2s1 = 98.1
• COc1ccc2sc(N(Cc3cccnc3)C(=O)c3ccc(C#N)cc3)nc2c1 = 63.2
• OC1=C2C(=Nc3ccccc3SC2c2ccc(Br)cc2)c2ccccc21 (stereo not shown) = 64.3
• CCCCc1ccc(NS(=O)(=O)c2cc3c4c(c2)CCN4C(=O)CC3)cc1 = 67.8
• O=C(Nc1ccc(N2CCCCC2)c(Cl)c1)c1ccc(Br)o1 = 97.5
• O=C(NCC1Cc2cccc(-c3ccncc3)c2O1)c1csc2c1CCCC2 (stereo not shown) = 95.9
• Cc1ccccc1OCCSc1nc2ccc(NC(=O)c3cccs3)cc2s1 = 37.1
• CN(C)c1ccc(N=Cc2ccc(N3CCOCC3)cc2)cc1 = -8.32
• Cc1cc(N2CCN(C3CCCC3)CC2)n2c(nc3ccccc32)c1C#N = -9.81
• CC1CCN(Cc2ccc(NC(=O)c3cc4ccc5cccnc5c4[nH]3)cc2)CC1 = 95.4
• O=C(Nc1ccc(CN2CCOCC2)cc1)c1ccc(-c2cc(Cl)ccc2Cl)o1 = 93.9
• COc1cc2cc(C(=O)Nc3ccccc3)c(N)nc2cc1OC = 18.2
• COc1cccc(Nc2nc(NCCO)c3ccccc3n2)c1 = 99.7
• O=C(CSc1ccc2nnc(-c3cccc(F)c3)n2n1)Nc1ccc2c(c1)OCO2 = -2.83
• CCCCCCc1cc2cc(-c3csc(C=Cc4ccccc4)n3)c(=O)oc2cc1O = 99.5
• CCN(Cc1ccccc1)C1CCN(Cc2cc(Br)ccc2O)CC1 = 82.2

* * *

Tested on: HepG2-A16-CD81EGFP cells
Test: cells
Settings: Homo sapiens, HepG2, read-out: HepG2 Tox% @ 50 uM rep1
experimental readout: cytotoxicity at 50 µM (%)

* COc1cc(OC)c(N(C)C(=O)c2cc3c(s2)-c2ccccc2S(=O)(=O)C3)cc1Cl | 53
* COc1ccc2c(c1)OC(O)(C(F)(F)C(F)(F)F)CC2=O (stereo not shown) | 96
* O=C(O)C1Cc2c([nH]c3ccccc23)C(c2ccc(Cl)cc2Cl)N1 (stereo not shown) | 49
* Cc1ccc(S(=O)(=O)c2c(COC(=O)c3cccc(C)c3)c(-c3ccccc3)nn2C)cc1 | 27
* COc1ccccc1N=C1C(=O)c2ccccc2C(O)=C1N1CCCCC1 | 94
* Cc1ccc(-c2cc3c(nn2)-c2ccccc2C3=O)cc1 | 31
* CCN(CC)c1ccc(NC(=O)c2cccs2)cc1 | 7
* CCOC(=O)c1cnc2ccc(CC)cc2c1O | -3.48
* COc1ccc(C(=O)C(CCC(CNC(C)(C)C)C(=O)c2ccc(OC)cc2)CNC(C)(C)C)cc1 (stereo not shown) | 101
* COc1ccc2nc(C)cc(Nc3ccccc3O)c2c1 | 59
* COc1ccc(N2CCN(C(CNC(=O)C3CCCCC3)c3ccc4c(c3)OCO4)CC2)cc1 (stereo not shown) | 18
* CC(C)(C)c1ccc2c(c1)CN(Cc1ccc(Cl)cc1)CO2 | 97
* COC(=O)c1ccc(C2C3=C(O)CC(c4ccc(F)cc4)CC3=Nc3ccccc3N2C(=O)c2ccccc2)cc1 (stereo not shown) | -12
* CCN(CC)CCNc1ncnc2c1[nH]c1ccc(Cl)cc12 | 95
* Cc1cc(Nc2ccc(OCc3ccccc3)cc2)nc2cc(O)ccc12 | 98
* Oc1c2c(nc3cc(-c4ccccc4)nn13)CCCC2 | -14
* O=C(NC1CCCC1)c1ccc(N2CCC(NCc3cccc(C(F)(F)F)c3)CC2)cc1 | -11
* Cc1ccc(C(=O)c2oc3ccc4c(C)cc(=O)oc4c3c2C)cc1 | 40
* CCOC(=O)c1cn(CC)c2cc(N(C)CCc3ccc(OC)c(OC)c3)c(F)cc2c1=O | 6

From: paper PMC4890880
